log10 of EC50: recorded values
- Tested on: HCC78 non-small cell lung cancer cells
- Test Protocol: HCC78 cell proliferation assay
- Type: cell-based
- Condition Label: Homo sapiens, HCC78, 96 h; -log EC50 (M); 4 days, MTT; read-out: HCC-78 PROL pEC50 (converted)
Endpoint Label: log10 of EC50 (log10 of the value in M)

# Molecule, Measured Result
records = [
    ("CC(C)c1ccc(COc2ccc(-c3c(-c4ccncc4)nn4c3N(C)CCC4)cc2)cc1 [Co. 19]", -6.10),
    ("CC(C)c1ccc(COc2ccc(-c3c(-c4ccncc4)nn4c3NCC4)c(F)c2)cc1 [Co. 5]", -6.10),
    ("CNC(=O)c1ccnc2c(-c3ccc(OCc4ccc(C(C)C)cc4)cc3)c(-c3ccncc3)nn12 [Co. J]", -5.70),
    ("Cc1ccn2nc(-c3ccncc3)c(-c3ccc(OCc4ccc(C(C)C)cc4)cc3F)c2n1 [Co. C]", -6.70),
    ("CC(C)c1ccc(COc2ccc(-c3c(-c4ccncc4)nn4c3NCC4)cc2)cc1 [Co. 1]", -6.10),
    ("CC(C)c1ccc(COc2ccc(-c3c(-c4ccncc4)nn4ccc(=O)[nH]c34)cc2)cc1 [Co. E]", -6.30),
    ("c1cc(-c2nn3c(c2-c2ccc(OCc4ccc(C5CC5)cc4)cc2)NCC3)ccn1 [Co. 7]", -6.20),
    ("CNC(=O)C1CCNc2c(-c3ccc(OCc4ccc(C(C)C)cc4)cc3)c(-c3ccncc3)nn21 (centres unmarked) [Co. 26]", -6.80),
]

###

- Test system: HCC78 non-small cell lung cancer cells
- Test Protocol: HCC78 cell proliferation assay
- Type: cell-based
- Condition Label: Homo sapiens, HCC78, 96 h; -log EC50 (M); 4 days, MTT; read-out: HCC-78 PROL pEC50 (converted)
EC50: recorded values

# Compound, EC50 [M]
rows = [
    ("CC(C)c1ccc(COc2ccc(-c3c(-c4ccncc4)nn4c3NC(CO)CC4)cc2)cc1 (centres unmarked)", "7.94e-08"),
    ("CC(C)c1ccc(COc2ccc(-c3c(-c4ccncn4)nn4c3NCC4)c(F)c2)cc1", "6.31e-07"),
    ("CC(C)c1ccc(COc2ccc(-c3c(-c4ccncc4)nn4c3N(CCCN)CC4)cc2)cc1", "1.58e-06"),
    ("CC(C)c1ccc(COc2ccc(-c3c(-c4ccncc4)nn4c3NCC4)cc2)cc1CC(O)CO (centres unmarked)", "5.01e-07"),
    ("CC(C)c1ccc(COc2ccc(-c3c(-c4ccncn4)nn4c3NCC4)cc2)cc1", "1e-06"),
    ("CC(C)c1ccc(COc2ccc(-c3c(-c4ccncc4)nn4c3NC(=O)CC4)cc2)cc1", "1e-07"),
    ("CC(C)c1ccc(COc2cc(F)c(-c3c(-c4ccncc4)nn4c3NCC4)cc2F)cc1", "1.26e-08"),
    ("CC(C)c1ccc(COc2ccc(-c3c(-c4ccncc4)nn4c3NCCC4)cc2)cc1", "1e-07"),
]

###

EC50: recorded values
- Test system: HCC78 non-small cell lung cancer cells
- Test Protocol: HCC78 cell proliferation assay
- Assay type: cell-based
- Condition Label: Homo sapiens, HCC78, 96 h; -log EC50 (M); 4 days, MTT; read-out: HCC-78 PROL pEC50 (converted)
Endpoint Label: EC50

# Molecule, Target Entity, Measured Result
data = [
    ("CC(C)c1ccc(COc2ccc(-c3c(-c4ccncc4)nn4c3NC(=O)C4)cc2)cc1", "HCC78 non-small cell lung cancer cells", "5.01e-07 M"),
    ("CC(C)c1ccc(COc2ccc(-c3c(-c4ccncc4)nn4c3NCC4)cc2)c(F)c1F", "HCC78 non-small cell lung cancer cells", "2e-06 M"),
    ("CC(C)c1ccc(COc2ccc(-c3c(-c4ccncc4)nn4c3NC(CO)CC4)c(F)c2)cc1 (stereo not drawn)", "HCC78 non-small cell lung cancer cells", "1e-07 M"),
    ("CC(C)c1ccc(COc2ccc(-c3c(-c4ccncc4)nn4c3NCC4)cn2)cc1", "HCC78 non-small cell lung cancer cells", "6.31e-07 M"),
    ("CC(C)c1ccc(COc2ccc(-c3c(-c4ccncc4)nn4c3NCCC4)c(F)c2)cc1", "HCC78 non-small cell lung cancer cells", "3.98e-07 M"),
    ("CC(C)c1ccc(COc2ccc(-c3c(-c4ccncc4)nn4c3NCCC4CO)cc2)cc1 (stereo not drawn)", "HCC78 non-small cell lung cancer cells", "7.94e-07 M"),
]
